Tested on: IGROV-1
Test: NCI tumour cell line growth inhibition, 48 h
Activity calls are given as the source filed them. Rule as the data show it: active = GI50 up to about 1.1 µM and inactive = higher.
readout label: GI50

-- ask Requested field: GI50. Item: COc1cc(=O)oc(/C=C/C=O)c1C
-- reply 30.4 µM (inactive)

-- ask Requested field: GI50. Item: O=C1C2c3[nH]c4ccccc4c3[C@@H]3CCCCC3C2C(=O)N1c1ccccc1 (stereo not given in full)
-- reply 23 µM (inactive)

-- ask Requested field: GI50. Item: COc1cccc(/C=C2/S/C(=N/Nc3nc(C)c(C(C)=O)s3)NC2=O)c1O
-- reply 35.9 µM (inactive)

-- ask Requested field: GI50. Item: CC(C)N(C(=O)C12C3C4C1C1C2C3C41C(N)=O)C(C)C (stereo not given)
-- reply > 100 µM (inactive)

-- ask Requested field: GI50. Item: COC(=O)c1cc2c3c(ccc2[nH]1)N(C(=O)c1cc2c4c(ccc2[nH]1)N(C(=O)c1cc2c5c(ccc2[nH]1)N(C(N)=O)CC5)CC4)CC3
-- reply 3.37 µM (inactive)

-- ask Requested field: GI50. Item: Cc1csc(CCC(N)C(=O)O)n1 (stereo not given)
-- reply > 100 µM (inactive)

-- ask Requested field: GI50. Item: O=P(O)(O)CC1OC(CO)C(O)C1O (stereo not given)
-- reply > 100 µM (inactive)

-- ask Requested field: GI50. Item: CSC1(C)C(=O)Nc2c(OCc3ccccc3)cc([N+](=O)[O-])cc21 (stereo not given)
-- reply 54.8 µM (inactive)

-- ask Requested field: GI50. Item: N#Cc1c(N2CCN(c3ccc([N+](=O)[O-])cc3)CC2)[n+]([O-])c2ccc(-c3ccc([N+](=O)[O-])cc3)cc2[n+]1[O-]
-- reply 1.69 µM (inactive)

-- ask Requested field: GI50. Item: CC(C)(C)[C@H]1NC(=O)CN1C(=O)OCc1ccccc1
-- reply > 100 µM (inactive)

====

Exercise: for every item that follows, state its recorded GI50.
System: SK-MEL-2
Assay: NCI tumour cell line growth inhibition, 48 h
The source made the active and inactive calls. Cut-off read from the data, not from the text of the source: active = GI50 up to about 1.1 µM and inactive = higher.

-- ask Report GI50 for CN(N=O)N1C(=O)SCC(c2ccccc2)(c2ccccc2)C1=O tested on SK-MEL-2.
-- reply 18.9 µM (inactive)

-- ask Report GI50 for CC(C)(C)c1ccc(OCC(=O)O)c(Cl)c1 tested on SK-MEL-2.
-- reply > 100 µM (inactive)

-- ask Report GI50 for O=C(O)C12C3CCC(C3)C1(C(=O)O)C1CCC2C1 (centres undefined) tested on SK-MEL-2.
-- reply > 100 µM (inactive)

-- ask Report GI50 for O=c1ccc2ccc(OP(=O)(O)O)cc2o1 tested on SK-MEL-2.
-- reply > 100 µM (inactive)

-- ask Report GI50 for COc1ccc(/C=C2\Sc3nnc(-c4ccccc4)n3N=C2c2cc(F)c(Cl)cc2Cl)cc1OC tested on SK-MEL-2.
-- reply > 100 µM (inactive)

-- ask Report GI50 for O=C(O[C@@H](/C=C/c1ccccc1)P1(=O)N(Cc2ccccc2)[C@@H]2CCCC[C@H]2N1Cc1ccccc1)c1ccccc1 tested on SK-MEL-2.
-- reply 2.38 µM (inactive)

-- ask Report GI50 for O=C1C=CC(=O)c2c1cc1ccccc1c2O tested on SK-MEL-2.
-- reply 14.4 µM (inactive)

-- ask Report GI50 for COC(=O)C1=C(C)NC(C)=C([N+](=O)[O-])C1c1cccc(NO)c1 (centres undefined) tested on SK-MEL-2.
-- reply 11.2 µM (inactive)

-- ask Report GI50 for NN=C(S)Nc1cccc(Cl)c1 tested on SK-MEL-2.
-- reply 79.4 µM (inactive)

-- ask Report GI50 for CNC(C)Cc1ccccc1O (centres undefined) tested on SK-MEL-2.
-- reply > 100 µM (inactive)

-- ask Report GI50 for N#CCCN(CCCCN(CCC#N)C(=O)Nc1ccccc1)C(=O)Nc1ccccc1 tested on SK-MEL-2.
-- reply > 100 µM (inactive)

-- ask Report GI50 for O=C(c1ccco1)N(C(=S)N1CCN(c2ccccc2)CC1)c1ccccc1 tested on SK-MEL-2.
-- reply > 100 µM (inactive)

-- ask Report GI50 for CN(CC(=O)O)c1ncc2c(n1)-c1ccccc1OC2c1ccccc1 (centres undefined) tested on SK-MEL-2.
-- reply 87.7 µM (inactive)

-- ask Report GI50 for Clc1ccc(CCn2ccc3ccccc32)c(Cl)c1 tested on SK-MEL-2.
-- reply > 100 µM (inactive)

-- ask Report GI50 for COc1ccc2c(c1)OC[C@@H]1c3cc(O)c(OCc4ccccc4)cc3O[C@H]21 tested on SK-MEL-2.
-- reply 17.3 µM (inactive)

-- ask Report GI50 for CC(C)CC(NC(=O)OC(C)(C)C)C(=O)Nc1ccc(Nc2nc(F)nc(-c3c4ccccc4cn3C)n2)cc1 (centres undefined) tested on SK-MEL-2.
-- reply > 100 µM (inactive)

-- ask Report GI50 for Cc1cc(/N=C/c2c(CO)cnc(C)c2O)c(/N=C/c2c(CO)cnc(C)c2O)cc1C.[Zn+2] tested on SK-MEL-2.
-- reply > 100 µM (inactive)

-- ask Report GI50 for O=c1[nH]cnc2c(COCCCO)c[nH]c12 tested on SK-MEL-2.
-- reply > 100 µM (inactive)

-- ask Report GI50 for COc1cc2c(cc1OCc1ccccc1)NC(=O)[C@@H]1CCCN1C2=O tested on SK-MEL-2.
-- reply > 100 µM (inactive)

-- ask Report GI50 for CC1COS(=O)O1 (centres undefined) tested on SK-MEL-2.
-- reply > 100 µM (inactive)

-- ask Report GI50 for COc1cccc(/C=C2/S/C(=N/Nc3nc(C)c(C(C)=O)s3)NC2=O)c1O tested on SK-MEL-2.
-- reply 21.2 µM (inactive)

-- ask Report GI50 for COc1ccc(/C=C/C(=O)c2sc(N)nc2C)cc1 tested on SK-MEL-2.
-- reply > 100 µM (inactive)

-- ask Report GI50 for Cc1ccc2ccc(=O)oc2c1 tested on SK-MEL-2.
-- reply > 100 µM (inactive)

-- ask Report GI50 for Cc1n2nc(N)sc2n[n+]1Cc1ccccc1 tested on SK-MEL-2.
-- reply > 100 µM (inactive)
